Method: Encapsulation efficiency of lipid nanoparticles, Quant-it Ribogreen RNA quantification assay
Type: physicochemical
Run Parameters: LNP with mRNA
Protocol: Briefly, a cationic lipid provided herein, DSPC, cholesterol, and PEG-lipid were solubilized in ethanol at a molar ratio of 50:10:38.5:1.5, and mRNA were diluted in 10 to 50 mM citrate buffer, pH=4. […] Lipid nanoparticle size were determined by dynamic light scattering using a Malvern Zetasizer Nano ZS (Malvern UK) using a 173° backscatter detection mode. […]
// values below are reported Encapsulation Efficiency
Respond with the bare value in %.

Sample answers from the record:
Record CCCCCCCCC(CCCCCCCC)CC(=O)OCC(CCCCN(CCO)C1CCC1)COC(=O)CC(CCCCCCCC)CCCCCCCC . Reported Encapsulation Efficiency: 91.0

Record CCCCCCCCC(CCCCCCCC)COC(=O)CCOCC(CN(C)CCN(CCO)C1CCC1)OCCC(=O)OCC(CCCCCCCC)CCCCCCCC (stereo not shown) . Reported Encapsulation Efficiency: 89.5

Record CCCCCCCCCCCCOCC(CN(CCCCCC(=O)OCC(CCCCCC)CCCCCCCC)CCN1CCCCC1)OC(=O)CCCCC (stereo not shown) . Reported Encapsulation Efficiency: 93.5

// moving on: another record for Encapsulation Efficiency
Record CCCCCCCCCCCCCCCC(=O)OCC(CCCCN(CCO)C1CCCCCCC1)COC(=O)CC(CCCCCC)CCCCCCCC (stereo not shown) . Reported Encapsulation Efficiency: 92.91

---

// values below are reported Encapsulation Efficiency
Method: Encapsulation efficiency of lipid nanoparticles, Quant-it Ribogreen RNA quantification assay
Format: physicochemical
Run Parameters: LNP with mRNA
Respond with the bare value in %.

Record CCCCCCCCCCCCOCC(CN(CCCCCC(=O)OCC(CCCCCC)CCCCCCCC)CCN(CCO)C1CCC1)OC(C)=O (stereo not shown) . Reported Encapsulation Efficiency: 90.7

Record CCCCCCCCCCCCOCC(CN(CCCCCC(=O)OCC(CCCCCC)CCCCCCCC)CCN(CCO)C1CCCCC1)OC(C)=O (stereo not shown) . Reported Encapsulation Efficiency: 85.5

Record CCCCCCCCCCCCOCC(CN(CCCCCC(=O)OCC(CCCCCC)CCCCCCCC)CCN(CCO)C1CCCCCC1)OCCCCCCCC (stereo not shown) . Reported Encapsulation Efficiency: 92.70

Record CCCCCCCCCCC(=O)OCC(CCCCN(CC=C(C)C)CCO)COC(=O)CC(CCCCCC)CCCCCCCC (stereo not shown) . Reported Encapsulation Efficiency: 93.93

---

// values below are reported polydispersity
Method: Lipid nanoparticle size and polydispersity by dynamic light scattering (Malvern Zetasizer Nano ZS)
Type: physicochemical
Run Parameters: LNP of cationic lipid/DSPC/cholesterol/PEG-lipid 50:10:38.5:1.5 with mRNA
// return just the number, without any unit appended

Record CCCCCCCCCCCCOCC(CN(C)CCO)OC(=O)CCCCCCCCCCC (stereo not drawn) . Reported polydispersity: 0.136

---
Record CCCCCCCCCCCCOCC(CN(CCCCCC(=O)OCC(CCCCCC)CCCCCCCC)CCN(CCO)C1CC1)OCCCCCCCC (stereo not drawn) . Reported polydispersity: 0.103

Record CCCCCCCCC(CCCCCCCC)CNC(=O)CCOCC(CN(C)CCN(CCO)C1CCC1)OCCC(=O)NCC(CCCCCCCC)CCCCCCCC (stereo not drawn) . Reported polydispersity: 0.057

Record CCCCCCCCCCCCOCC(CN(CCO)CCCCCC(=O)OCC(CCCCCC)CCCCCCCC)OC(=O)CC (stereo not drawn) . Reported polydispersity: 0.156

Record CCCCCCCCC(CCCCCCCC)CC(=O)OCC(CCCCN(CCO)C1CCC1)COC(=O)CCCCC (stereo not drawn) . Reported polydispersity: 0.068

Record CCCCCCCCCCCCOCC(CN(CCCCCC(=O)OCC(CCCCCC)CCCCCCCC)CCN(CCO)C1CCCCC1)OCCCCCCCC (stereo not drawn) . Reported polydispersity: 0.078

---

// values below are reported Apparant Pka
Method: Apparent pKa of LNP formulations, TNS fluorescence assay
Assay type: physicochemical
Run Parameters: LNP cationic lipid/DSPC/cholesterol/DMG-PEG 50/10/38.5/1.5 mol %, pH 3 to 9
// return just the number, without any unit appended

Sample answers from the record:
Record CCCCCCCCCCCCCCCC(=O)OCC(CCCCN(CCO)C1CCCC1)COC(=O)CC(CCCCCC)CCCCCCCC (stereo not shown) . Reported Apparant Pka: 7.059

Record CCCCCCCCCCCCOCC(CN(CCO)C1CCC1)OC(=O)CCCCCCCCCCC (stereo not shown) . Reported Apparant Pka: 5.177

Record CCCCCCCCC(CCCCCCCC)CNC(=O)CCOCC(CN(C)CCO)OCCC(=O)NCC(CCCCCCCC)CCCCCCCC (stereo not shown) . Reported Apparant Pka: 8.298

Record CCCCCCCCCCCCOCC(CN(CCCCCC(=O)OCC(CCCCCC)CCCCCCCC)CCN(CCO)C1CCC1)OCCCCCC (stereo not shown) . Reported Apparant Pka: 5.993

Record CCCCCCCCCCCCOCC(CN(CCCCCC(=O)OCC(CCCCCC)CCCCCCCC)CCN(CCO)C1CCCCCC1)OCCCCCCCC (stereo not shown) . Reported Apparant Pka: 5.726

---
Record CCCCC/C=C\C/C=C\CCCCCCCC(=O)OCC(CCCCN(CCO)C1CCCCC1)COC(=O)CC(CCCCCC)CCCCCCCC (stereo not shown) . Reported Apparant Pka: 6.666

Record CCCCCCCCCCCCOCC(CN(C)CCN(CCO)C1CCC1)OCCCCCC (stereo not shown) . Reported Apparant Pka: 6.971

---

Method: Lipid nanoparticle size and polydispersity by dynamic light scattering (Malvern Zetasizer Nano ZS)
Assay type: physicochemical
Run Parameters: LNP of cationic lipid/DSPC/cholesterol/PEG-lipid 50:10:38.5:1.5 with mRNA
Field 'label' (enum: true (1) / false (0)). Set to true (1) when polydispersity is strictly under 0.2; else false (0).

In: Field: below-cutoff. Rule: recorded polydispersity strictly less than 0.2. Subject: CCCCCCCCC(CCCCCC)CC(=O)OCC(CCCCN(CCN(CCO)CCCCCC)C1CCC1)COC(=O)CC(CCCCCC)CCCCCCCC (centres unmarked)
Out: true (1)

In: Field: below-cutoff. Rule: recorded polydispersity strictly less than 0.2. Subject: CCCCCCCCC(CCCCCCCC)CC(=O)OCC(CCCCN(CC)CCN(CCO)C1CCC1)COC(=O)CC(CCCCCCCC)CCCCCCCC
Out: true (1)

In: Field: below-cutoff. Rule: recorded polydispersity strictly less than 0.2. Subject: CCCCCCCCC(CCCCCC)CC(=O)OCC(CCCCN(CC=C(C)C)CCO)COC(=O)CC(CCCCCC)CCCCCCCC (centres unmarked)
Out: true (1)

In: Field: below-cutoff. Rule: recorded polydispersity strictly less than 0.2. Subject: CCCCCCCCCCCCOCC(CN(C)CCN(CCO)C1CCC1)OC(=O)CCCCC (centres unmarked)
Out: true (1)

In: Field: below-cutoff. Rule: recorded polydispersity strictly less than 0.2. Subject: CCCCCCCCCCCCCCCC(=O)OCC(CCCCN(CCO)C1CCCCCC1)COC(=O)CC(CCCCCC)CCCCCCCC (centres unmarked)
Out: true (1)

In: Field: below-cutoff. Rule: recorded polydispersity strictly less than 0.2. Subject: CCCCCCCCCCCCOCC(CN(CCCCCC(=O)OCC(CCCCCC)CCCCCCCC)CCN(CCO)C1CCCCC1)OC(C)=O (centres unmarked)
Out: false (0)

In: Field: below-cutoff. Rule: recorded polydispersity strictly less than 0.2. Subject: CCCCCCCCCCCCCCCCCCOCC(CN(CCCCCC(=O)OCCCCCCCCCC)CCN(CCO)C1CCC1)OCCCCCC (centres unmarked)
Out: true (1)

In: Field: below-cutoff. Rule: recorded polydispersity strictly less than 0.2. Subject: CCCCCCCCCCC(=O)OCC(CCCCN(CCO)C1CCC1)COC(=O)CC(CCCCCC)CCCCCCCC (centres unmarked)
Out: true (1)

In: Field: below-cutoff. Rule: recorded polydispersity strictly less than 0.2. Subject: CCCCCCCCCCCCOCC(O)CN(CCCCCC(=O)OCC(CCCCCC)CCCCCCCC)CCN1CCCCC1 (centres unmarked)
Out: true (1)

In: Field: below-cutoff. Rule: recorded polydispersity strictly less than 0.2. Subject: CCCCCCCCC(CCCCCC)CC(=O)OCC(CN(CCO)C1CCC1)OC(=O)CC(CCCCCC)CCCCCCCC (centres unmarked)
Out: false (0)

In: Field: below-cutoff. Rule: recorded polydispersity strictly less than 0.2. Subject: CCCCCCCCCCCCOCC(CN(CCCCCC(=O)OCCCCCCCCCC)CCN(CCO)C1CCC1)OCCCCCCCC (centres unmarked)
Out: true (1)

In: Field: below-cutoff. Rule: recorded polydispersity strictly less than 0.2. Subject: CCCCCCCCC(CCCCCC)CC(=O)OCC(CCCCN(CC=C(C)C)CCN(CCO)C1CCC1)COC(=O)CC(CCCCCC)CCCCCCCC (centres unmarked)
Out: true (1)

In: Field: below-cutoff. Rule: recorded polydispersity strictly less than 0.2. Subject: CCCCCCCCC(CCCCCCCC)COC(=O)CCOCC(CN(C)CCN(CCO)C1CCCCC1)OCCC(=O)OCC(CCCCCCCC)CCCCCCCC (centres unmarked)
Out: true (1)

The values you see were collected from patent US11964052B2.
